# mortality at 200 ppm annotations
system: Spodoptera littoralis (Egyptian cotton leaf worm); assay: Spodoptera littoralis cotton leaf disc spray test, L1 larvae; format: in vivo; details: foliar, 72 h, application rate of 200 ppm, 3 days after infestation, L1 larvae, read-out: mortality

COMPOUND: Cn1nc(C(F)(F)C(F)(F)F)c(C(F)(F)F)c1-c1cc(-c2ccc(Cl)c(C(=O)NC3(C(N)=S)CC3)c2)on1 [Compound 76]
TESTED_SYSTEM: Spodoptera littoralis (Egyptian cotton leaf worm)
RESULT: ≥ 80%
//
COMPOUND: Cn1nc(C(F)(F)C(F)(F)F)c(C(F)(F)F)c1-c1cc(-c2ccc(Cl)c(C(=O)NC3(C#N)CC3)c2)on1 [Compound 4]
TESTED_SYSTEM: Spodoptera littoralis (Egyptian cotton leaf worm)
RESULT: ≥ 80%
//
COMPOUND: Cn1nc(C(F)(F)C(F)(F)F)c(C(F)(F)F)c1-c1cc(-c2ccc(Cl)c(C(=O)NC3(C#N)CC3)c2)sn1 [Compound 44]
TESTED_SYSTEM: Spodoptera littoralis (Egyptian cotton leaf worm)
RESULT: ≥ 80%

Sample Cn1nc(C(F)(F)C(F)(F)F)c(C(F)(F)F)c1-c1ncn(-c2ccc(Cl)c(C(=O)NC3CC3)c2)n1 [Compound 35] — what was its mortality at 200 ppm?
≥ 80%

Here is the next compound: Cn1nc(C(F)(F)C(F)(F)F)c(C(F)(F)F)c1-c1ncc(-c2ccc(Cl)c(C(=O)NC3(C#N)CC3)c2)s1 [Compound 48]
≥ 80%

Now try Cn1nc(C(F)(F)C(F)(F)F)c(C(F)(F)F)c1-c1cc(-c2ccc(Cl)c(C(=O)NC3(c4ccccn4)CC3)c2)on1 [Compound 95] .
≥ 80%

Try this compound next: Cn1cc(-c2c(C(F)(F)F)c(C(F)(F)C(F)(F)F)nn2C)nc1-c1ccc(Cl)c(C(=O)NC2CC2)c1 [Compound 29]
≥ 80%
